These measurements were taken from the RNAGym collection of RNA variant scans (doi:10.7554/elife.90254).

Below: a set of entries, each annotated with reported self-cleavage.
B1: LINE1-full (parent)
chain: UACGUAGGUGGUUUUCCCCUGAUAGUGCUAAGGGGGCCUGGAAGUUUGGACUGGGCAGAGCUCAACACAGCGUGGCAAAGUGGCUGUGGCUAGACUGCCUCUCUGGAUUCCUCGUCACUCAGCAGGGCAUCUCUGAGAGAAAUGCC

Variants of: B1
Test: self-cleavage, relative activity (ratio to wild type); higher = more cleavage; in vitro, sequencing; the parent is a self-cleaving ribozyme

Please review the entries below; each comes with its answer.
Variant spec | self-cleavage
U81A U130C | 2.43
A6U C66U | 0.09
A50G A121U | 0.48
C123G | 1.36
U45C U102C | 1.55

Challenge: Sample A69C G93A — what was its self-cleavage?
Response given: 0.01

Challenge: self-cleavage for A24G A31G ?
Response given: 0.72

Challenge: Can you share its self-cleavage? I mean this variant: A31G A141G
Response given: 1.1

Challenge: Any idea what its self-cleavage is? The variant is U39C A79C
Response given: 2.53

Challenge: Quick check: self-cleavage of G72A U85G ?
Response given: 0.21

Challenge: For U5G A50U , what is its reported self-cleavage?
Response given: 0.38
